Biological target: D(2) dopamine receptor (Homo sapiens, UniProt P14416)
Sequence (P14416 whole entry): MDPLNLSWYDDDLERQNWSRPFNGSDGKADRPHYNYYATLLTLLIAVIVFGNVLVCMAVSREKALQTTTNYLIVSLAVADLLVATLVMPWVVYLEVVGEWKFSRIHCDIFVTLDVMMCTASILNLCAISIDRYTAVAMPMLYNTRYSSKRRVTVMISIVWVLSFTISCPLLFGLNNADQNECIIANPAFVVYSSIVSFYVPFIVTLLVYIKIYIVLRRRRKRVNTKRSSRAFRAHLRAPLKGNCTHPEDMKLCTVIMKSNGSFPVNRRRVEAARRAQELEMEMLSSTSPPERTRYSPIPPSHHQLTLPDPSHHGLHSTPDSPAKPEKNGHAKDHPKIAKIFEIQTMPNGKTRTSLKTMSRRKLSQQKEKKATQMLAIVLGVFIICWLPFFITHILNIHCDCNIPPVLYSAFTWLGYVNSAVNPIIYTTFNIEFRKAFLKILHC
Assay: biochemical
pKi: −log10 of the molar value.
MEASURED ENDPOINT: pKi

molecule="COc1c(C(=O)NC[C@@H]2CCN(Cc3ccccc3)C2)cc(Br)c2ccccc12 (stereo in doubt)" test_system="D(2) dopamine receptor (Homo sapiens, UniProt P14416)" measured_endpoint=pKi endpoint_value=5.89

a. COc1cc(N)c(Cl)cc1C(=O)N[C@H]1CCCN(Cc2ccccc2)C1 (stereo in doubt; 5a)
b. C#Cc1cc(C(=O)N[C@@H]2CCN(Cc3ccccc3)C2)c(OC)c2ccccc12 (stereo in doubt; 3i)
Prompt: Thinking about recorded pKi values, which is higher, a or b ? Write down the label attached to your selection.
Completion: b

P. COc1c(C(=O)N[C@H]2CN(Cc3ccccc3)C[C@@H]2C)cc(Br)c2ccccc12 (stereo in doubt; 3d)
Q. CNc1cc(OC)c(C(=O)N[C@H]2CN(Cc3ccccc3)C[C@H]2C)cc1Cl (stereo in doubt; 3e)
R. CNc1cc(OC)c(C(=O)N[C@H]2CN(Cc3ccccc3)C[C@@H]2C)cc1Cl (stereo in doubt)
S. CNc1cc(OC)c(C(=O)NC2CCN(Cc3ccccc3)CC2)cc1Cl
Prompt: Could you please sort these 4 entries by pKi from high to low? Arrange the labels as the request states and list them.
Completion: Q, R, S, P
(Q: 8.43, R: 7.82, S: 7.62, P: 6.00)
